Target: PCAF Brd (Homo sapiens, UniProt Q92831)
Construct: Human bromodomains were cloned, expressed and purified as previously described; made in house
Sequence (Q92831 723-827 limits assumed): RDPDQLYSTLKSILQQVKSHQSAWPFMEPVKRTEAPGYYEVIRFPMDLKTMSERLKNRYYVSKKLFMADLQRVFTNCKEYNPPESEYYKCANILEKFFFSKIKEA
Assay: Differential scanning fluorimetry (DSF), PCAF Brd
Type: binding
Conditions: compound concentration 10 μM
Parameter ΔT m [°C] PCAF (DSF): see the listing below.
Give a bare numeral; the unit °C is implied.

Cc1ccc([C@@H]([C@H](C)Nc2nn3c(C)nnc3c3ccccc23)N(C)C)cc1 (relative stereo)    7.8
Cc1nnc2c3ccccc3c(NC(C)CN(C)C)nn12 (centres unmarked)    5.6
Cc1nnc2c3ccccc3c(N[C@@H](C)[C@H](c3ccccc3)N(C)C)nn12 (relative stereo)    7.9

QUERY: Tell me reported ΔT m [°C] PCAF (DSF) for `CN(C)[C@H]1CCC[C@@H]1Nc1nn2c(C(F)(F)F)nnc2c2ccccc12` , tested with PCAF Brd (Homo sapiens, UniProt Q92831).
RESULT: 0.7

QUERY: Tell me reported ΔT m [°C] PCAF (DSF) for Cc1nnc2c3ccccc3c(N3CCN4CCCCC4C3)nn12 (centres unmarked) , tested with PCAF Brd (Homo sapiens, UniProt Q92831).
RESULT: 0.5

====

Target: PCAF Brd (Homo sapiens, UniProt Q92831)
Construct: Human bromodomains were cloned, expressed and purified as previously described; made in house
Test: Isothermal titration calorimetry (ITC), PCAF Brd
Type: binding
Details: Supplemental Table 3; compound concentration 30 μM, protein concentration 280-320 μM; read-out: PCAF KD (μM) (ITC)
Parameter Kd: see the listing below.

Record excerpt, results attached:
Cc1nnc2c3ccccc3c(N[C@H]3CCCC[C@@H]3N(C)C)nn12 [Compound 66]    > 30 µM
Cc1nnc2c3ccccc3c(N[C@@H]3CCCN(C(=O)OCc4ccccc4)C3)nn12 [Compound 65]    > 30 µM

Kindly consider the entry below.
QUERY: Could you share which Kd value was measured for COc1cccc(N2CC(Nc3nn4c(C)nnc4c4ccccc34)CC2=O)c1 (stereo not drawn) [Compound 57] ?
RESULT: > 30 µM

====

Molecular target: GCN5L2 (Homo sapiens, UniProt Q92830)
Construct: made in house
Sequence (Q92830 728-832 limits assumed): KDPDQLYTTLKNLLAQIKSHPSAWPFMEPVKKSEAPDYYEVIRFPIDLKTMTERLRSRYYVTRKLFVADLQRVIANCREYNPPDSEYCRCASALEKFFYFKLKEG
Assay: Differential scanning fluorimetry (DSF), GCN5 (GCN5L2) Brd
Assay type: binding
Conditions: compound 10 μM
Parameter GCN5L2 ΔTm (°C) (DSF): see the listing below.
Give a bare numeral; the unit °C is implied.

Record excerpt, results attached:
Cc1nnc2c3ccccc3c(NCC(=O)c3ccccc3)nn12 [Compound 81]    0.3
CCN(CC)CC(C)Nc1nn2c(C(F)(F)F)nnc2c2ccccc12 (stereo not shown) [Compound 90]    0.1
Cc1nnc2c3ccccc3c(NCC3CCCN3C)nn12 (stereo not shown) [Compound 97]    0.9
CC(=O)O.Cc1nnc2c3ccccc3c(NCCN3CCCC3)nn12 [Compound 59]    0.7
Cc1nnc2c3ccccc3c(N[C@H]3CCCC[C@@H]3N(C)C)nn12 [Compound 66]    0.1

Kindly consider the entry below.
QUERY: Could you share which GCN5L2 ΔTm (°C) (DSF) value was measured for Cc1nnc2c3ccccc3c(N[C@@H]3CCCN(Cc4ccccc4)C3)nn12 [Compound 64] ?
RESULT: 0.5

====

Assay: Metabolic stability in human liver microsomes
Format: in vitro ADME
Details: human, liver microsomes; read-out: t1/2 human liver microsomes
measure-name: half-life (min)
Give a bare numeral; the unit min is implied.

Cc1nnc2c3ccccc3c(N[C@@H](C)[C@H](c3ccccc3)N(C)C)nn12    40

Kindly consider the entry below.
QUERY: Could you share which half-life value was measured for Cc1nnc2c3ccccc3c(N[C@@H](C)[C@H](c3ccc(F)cc3)N(C)C)nn12 (relative stereo) ?
RESULT: 48
